Cited source: ChEMBL document CHEMBL1158418

Give inhibition for every item shown.
- tgt: Trypanothione reductase (Trypanosoma cruzi) (UniProt P28593)
- Sequence (P28593 whole entry, looked up): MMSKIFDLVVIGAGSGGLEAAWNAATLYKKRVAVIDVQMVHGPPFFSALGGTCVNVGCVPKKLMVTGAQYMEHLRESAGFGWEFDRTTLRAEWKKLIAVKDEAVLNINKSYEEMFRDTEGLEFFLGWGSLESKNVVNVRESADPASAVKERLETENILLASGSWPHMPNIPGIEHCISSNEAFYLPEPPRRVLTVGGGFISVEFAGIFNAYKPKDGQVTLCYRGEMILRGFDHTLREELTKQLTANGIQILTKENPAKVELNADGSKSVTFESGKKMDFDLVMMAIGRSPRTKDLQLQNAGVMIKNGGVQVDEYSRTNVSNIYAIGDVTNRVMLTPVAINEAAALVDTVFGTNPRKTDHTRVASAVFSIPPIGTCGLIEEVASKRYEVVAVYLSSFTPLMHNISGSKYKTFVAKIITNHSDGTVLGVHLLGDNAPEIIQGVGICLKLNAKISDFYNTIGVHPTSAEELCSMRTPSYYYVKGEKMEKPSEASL
- test: Inhibition of Trypanosoma cruzi recombinant trypanothione reductase at 100 uM by spectrophotometry using 50 uM trypanothione disulfide
Entry rule: numbers only, all in %.

inhibition on Trypanothione reductase (Trypanosoma cruzi) (UniProt P28593) for COc1cc2nc(N3CCN(C(=O)Cc4c[nH]c5ccccc45)CC3)nc(N)c2cc1OC is 13

inhibition on Trypanothione reductase (Trypanosoma cruzi) (UniProt P28593) for CN(C)CCOc1cc2nc(N3CCN(C(=O)Cc4c[nH]c5ccccc45)CC3)nc(N)c2cc1OCCN(C)C is 44

inhibition on Trypanothione reductase (Trypanosoma cruzi) (UniProt P28593) for COC1=CC(=O)C=C(N2CCN(c3nc(N)c4cc(OC)c(OC)cc4n3)CC2)C1=O is 69

inhibition on Trypanothione reductase (Trypanosoma cruzi) (UniProt P28593) for COc1cc2nc(N3CCN(C(=O)[C@@H]4Cc5ccccc5CN4)CC3)nc(N)c2cc1OC is 0

inhibition on Trypanothione reductase (Trypanosoma cruzi) (UniProt P28593) for COc1cc2nc(N3CCN(C(=O)[C@H]4Cc5ccccc5CN4)CC3)nc(N)c2cc1OC is 0
